Here we gather pIC50 data for Glycogen synthase kinase-3 beta (Homo sapiens) reported by several publications.
pIC50: −log10 of the molar value.
measured-property: pIC50

compound=COc1ccc(OCCCNc2nccc(-c3ccc(C(N)=O)cc3)n2)cc1 observed_result="≥ 6.00"
compound=CN(C)CCc1noc(-c2cnc(NCCNc3ccc([N+](=O)[O-])c(N)n3)nc2-c2ccc(Cl)cc2Cl)n1 observed_result="≥ 6.00"
compound=CCOC(=O)c1cnc(NCCNc2ccc(C(=O)N3CCOCC3)cn2)nc1-c1ccc(C#N)cc1 observed_result="≥ 5.00"
compound=Nc1nc(NCCNc2nc(-c3ccc(C(F)(F)F)cc3)cc3nccn23)ccc1[N+](=O)[O-] observed_result=6.71
compound="CC(C)(C)C1CCC(NC(=O)c2n[nH]cc2NC(=O)c2ccccc2)CC1 (centres unmarked)" observed_result="> 5.00"
compound="CC(C)N1CCC(c2nc3cc(-c4ccc(F)cc4Cl)nc(N4CCCC(Nc5ccc(C(=O)C(F)(F)F)c(N)n5)C4)n3n2)CC1 (racemic)" observed_result=8.40
compound=Nc1nc(NCCNc2ncc(-c3ncc[nH]3)c(-c3ccccc3Cl)n2)ccc1[N+](=O)[O-] observed_result="≥ 6.00"
compound=O=C(Nc1cnccc1N1CCC(F)(F)CC1)c1ccnn2c(NCC3CC3)cnc12 observed_result=8.96

* * *

Here we gather IC50 data for Glycogen synthase kinase-3 beta (Homo sapiens, UniProt P49841) reported by several publications.
measured-property: IC50

compound=Cc1cc(C)cc(-c2ccnc3[nH]cc(Sc4ccccn4)c23)c1 observed_result="≤ 10000 nM"
compound=CCNC(=O)c1ccc(NCCNc2ncc(C(=O)OCC)c(-c3ccc(C#N)cc3)n2)nc1 observed_result="≤ 10000 nM"
compound=N#Cc1cnc(NCCNc2nccc(-c3ccc(C(N)=O)cc3)n2)nc1N observed_result="≤ 1000 nM"
compound=CCOC(=O)c1cnc(NCCNc2ccc([N+](=O)[O-])cn2)nc1-c1ccc(Cl)c(Cl)c1 observed_result="≤ 10000 nM"
compound=O=C(NC1CCCCC1)c1n[nH]cc1NC(=O)c1c(F)cccc1F observed_result="< 10000 nM"
compound=O=C(Nc1cnccc1OCC(F)(F)F)c1ccnn2cc(-c3ccccc3)nc12 observed_result="0.3 nM"
compound=N#Cc1ccc(NCCNc2nccc(-c3ccc(C(=O)NCc4cccc(Br)c4)cc3)n2)nc1 observed_result="≤ 1000 nM"
compound=COc1ccc(C(=O)c2c[nH]c3ncc(-c4cccc(/C=C/C(=O)O)c4)cc23)c(Cl)c1 observed_result="≤ 10000 nM"
compound=N#Cc1ccc(-c2nc(NCCNc3ccc([N+](=O)[O-])cn3)ncc2C(=O)OCCO)cc1 observed_result="≤ 1000 nM"
compound=CC(=O)Nc1ccc(CCNC(=O)c2ccnc3[nH]c(-c4ccc(Cl)cc4)nc23)cc1 observed_result="38 nM"
compound="O=C1NCCc2cccc(c2)Nc2ncnc(n2)-c2ccnc(c2)CCCN2CCCC1C2 (stereo not drawn)" observed_result="10 to 100 nM"
compound=NC(=O)c1ccc(-c2ccnc(NCc3cc(C(F)(F)F)cc(C(F)(F)F)c3)n2)cc1 observed_result="≤ 10000 nM"
compound="CC(C)(C)C1CCC(NC(=O)c2n[nH]cc2NC(=O)c2ccc(CN3CCOCC3)o2)CC1 (stereo not drawn)" observed_result="< 10000 nM"
compound=CCOC(=O)c1c(CC)nc(NCCNc2ccc(C#N)cn2)nc1-c1ccc(C(N)=O)cc1 observed_result="≤ 1000 nM"
compound=CN1CC(=O)NCCCNc2cc(ccn2)-c2ncnc(n2)Nc2cccc(c2)C1 observed_result="10 to 100 nM"
compound=CN(C)CCNC(=O)c1cnc(NCCNc2ccc([N+](=O)[O-])cn2)nc1-c1ccc(C#N)cc1 observed_result="≤ 1000 nM"
compound=COc1ccc(-c2nc(NCCNc3ccc([N+](=O)[O-])cn3)nc(-c3ccc([N+](=O)[O-])cc3)c2C(=O)O)cc1 observed_result="≤ 10000 nM"
compound=Cc1cccc(CNC(=O)c2ccc(-c3ccnc(NCc4cccc(Br)c4)n3)cc2)c1 observed_result="≤ 10000 nM"
compound=CCOc1ccncc1NC(=O)c1ccnc2[nH]c(-c3ccc(N4CCCC4)cc3)nc12 observed_result="3 nM"
compound=COc1ccc2c(NC(=O)Nc3cccc(C(F)(F)F)n3)ccnc2c1 observed_result="< 100 nM"
compound=COc1ccc(Nc2nccc(-c3cccc(Cn4ccnc4)c3)n2)cn1 observed_result="70 nM"
compound="CC(CNc1nccc(-c2ccc(C(N)=O)cc2)n1)c1ccccc1 (stereo not drawn)" observed_result="≤ 1000 nM"
compound=CC(=O)Nc1cccc(-c2cccc(CNc3nccc(-c4ccc(C(N)=O)cc4)n3)c2)c1 observed_result="≤ 10000 nM"
compound=COc1ccn2ncc(-c3nc4[nH]nc(NC(=O)Cc5ccc(F)cc5)c4cc3F)c2c1 observed_result="20000 nM"
compound=NC(=O)c1ccc(-c2ccnc(NCCc3ccccn3)n2)cc1 observed_result="≤ 1000 nM"
compound=COc1cccc(-n2ncc3c(N/N=C/c4ccncc4)ncnc32)n1 observed_result="< 100 nM"
compound=COc1cccc(-c2ccnc(Nc3cccc([N+](=O)[O-])c3)n2)c1 observed_result="70 nM"
compound=c1ccc(-c2ccnc(NCCNc3ccccn3)n2)cc1 observed_result="≤ 10000 nM"
compound="CN(C)C1CC(=O)N(c2cnc(NCCNc3ccc([N+](=O)[O-])c(N)n3)nc2-c2ccc(Cl)cc2Cl)C1=O (stereo not drawn)" observed_result="≤ 1000 nM"
compound=CN(C)Cc1cccc(-c2ccnc(Nc3ccc(N4CCOCC4)cc3)n2)c1 observed_result="2300 nM"
compound=N#Cc1ccc(-c2ccncc2NC(=O)c2ccnn3cc(-c4ccccc4)nc23)cc1 observed_result="1.1 nM"
compound=O=C(Nc1cnccn1)Nc1cccc2ccncc12 observed_result="100 to 10000 nM"
compound=CN(C)C(=O)c1cnc(NCCNc2ccc([N+](=O)[O-])cn2)nc1-c1ccc(C#N)cc1 observed_result="≤ 1000 nM"
compound=CC(=O)Nc1ccc(F)c(C(=O)c2c[nH]c3ncc(-c4cccnc4)cc23)c1F observed_result="≤ 10000 nM"
compound=COc1cccc(-n2ncc3c(N/N=C/c4ccc(C(=O)NCCN(C)C)cc4)ncnc32)n1 observed_result="< 100 nM"
compound=CCOC(=O)c1cnc(NCCNc2ccc([N+](=O)[O-])cn2)nc1-c1ccc(F)c(F)c1 observed_result="≤ 1000 nM"
